# SYSTEM_NAME: SARS-CoV-2 full length spike protein (wild-type), conjugated to optically encoded beads (SARS-CoV-2, UniProt P0DTC2 14-1208)
Listed here: items and their measured median fluorescence fold over isotype.
The response must be a number in fold over isotype with no trailing unit.

- antibody 543 (antibody, V domains shown) VH: EVQLVESGGGLVQPGRSLRLSCAASGFTFHDYAMHWVRQAPGKGLEWVSGISWNSGSIGYADSVKGRFTISRDNAKNSLYLQMNSLRAEDTALYYCAKDTFGSSSWYRGDSYYYYGMDVWGQGTTVTVSS VL: QSALTQPASVSGSPGQSITISCTGTSSDVGGYNYVSWYQQHPGKAPKLMIYEVSNRPSGVSNRFSGSKSGNTASLTISGLQAEDEADYYCSSYTSSSTQRYVVFGGGTKLTVL: 802

Let us examine a further case.
For antibody 509 (antibody, V domains shown) VH: QVQLVESGGGVVQPGRSLRLSCAASGFNLSSYAMHWVRQASGKGLEWVSLISYDGSIKYYTDSVKGRFTVSGDNSKNTLFLQMNSLRADDSALYYCVRGGVSGPNSFDLWGQGTTVTVSS VL: DVVMTQSPLSLPVTLGQPASISCRSSQSLVYSDGNTYVNWFQQRPGQSPRRLIYKVSIRASGVPDRFSGSGSGTDFALKISRVEAEDVGVYYCMQGTHWPVTFGQGTKVEIK , what is its reported median fluorescence fold over isotype?
496

Source: patent US20210292393A1
